Would you kindly list PBM binding z-score for each of these sequences?
System: RXRa homodimer (NR concentration 180 nM)
ASSAY TEXT: PBM binding z-score (relative to random genomic background probes); higher = stronger binding; sequences stand for … in GC…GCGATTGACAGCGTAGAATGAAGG
API note: the answer field is a bare number with no unit suffix.

PBM binding z-score in this record for "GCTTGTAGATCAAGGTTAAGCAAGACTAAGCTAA" : 0.912

So for "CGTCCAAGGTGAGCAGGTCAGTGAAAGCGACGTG" , the logged PBM binding z-score turned out to be 1.09

The value of PBM binding z-score measured for the sequence "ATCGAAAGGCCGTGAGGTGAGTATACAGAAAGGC" turned out to be 0.904

The reported value for "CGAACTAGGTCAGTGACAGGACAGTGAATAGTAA" in terms of PBM binding z-score is 1.34

Item: "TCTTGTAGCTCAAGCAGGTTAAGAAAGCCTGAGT" | PBM binding z-score: -0.207

// field: PBM binding z-score; key: "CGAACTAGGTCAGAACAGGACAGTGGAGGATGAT" ; value = 1.4

Value of measured PBM binding z-score for the entry "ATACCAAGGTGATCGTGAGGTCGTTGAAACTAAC" : 1.98

PBM binding z-score for "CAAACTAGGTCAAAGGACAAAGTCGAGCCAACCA" is 3.31

The sequence listed as "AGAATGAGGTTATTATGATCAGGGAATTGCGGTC" has a reported PBM binding z-score of 1.7

For record "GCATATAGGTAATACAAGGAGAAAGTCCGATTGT" the listed PBM binding z-score is -0.0159

Lab book: PBM binding z-score of "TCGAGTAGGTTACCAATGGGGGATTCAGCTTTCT" noted as 0.767

Documented PBM binding z-score of "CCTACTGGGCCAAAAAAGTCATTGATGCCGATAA" : -0.184

Briefly, PBM binding z-score measured for "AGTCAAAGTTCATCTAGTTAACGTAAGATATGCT" : 4.19

Consider "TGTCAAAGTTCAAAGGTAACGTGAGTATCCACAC" . Its measured PBM binding z-score is 7.77

So, "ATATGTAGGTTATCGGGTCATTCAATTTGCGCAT" ? Its PBM binding z-score was 3.4

Notebook: "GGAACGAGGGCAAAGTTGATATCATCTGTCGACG" , PBM binding z-score read as 1.96

# PBM binding z-score (sequence: "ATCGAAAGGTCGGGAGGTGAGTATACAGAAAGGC" ) is 3.58

// sample "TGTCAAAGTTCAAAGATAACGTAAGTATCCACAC" , its PBM binding z-score was 4.6

Recorded PBM binding z-score (sequence "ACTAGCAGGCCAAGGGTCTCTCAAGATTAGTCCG" ): 0.0173

Measured PBM binding z-score, "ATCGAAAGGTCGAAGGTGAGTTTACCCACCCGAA" : 5.2

The sequence identified as "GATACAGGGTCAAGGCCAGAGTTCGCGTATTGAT" registered its PBM binding z-score at 6.18

Short answer for "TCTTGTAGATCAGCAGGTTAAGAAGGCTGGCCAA" : PBM binding z-score was 0.428

PBM binding z-score for "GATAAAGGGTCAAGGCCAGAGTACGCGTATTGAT" is 6.59

Noted for "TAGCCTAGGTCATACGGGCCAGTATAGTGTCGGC" : its PBM binding z-score reads 3.22

sequence "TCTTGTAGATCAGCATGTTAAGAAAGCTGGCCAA" , PBM binding z-score observed: -0.151

Memo: "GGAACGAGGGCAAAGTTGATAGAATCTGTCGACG" , reported PBM binding z-score: 2.06

Lab book: PBM binding z-score of "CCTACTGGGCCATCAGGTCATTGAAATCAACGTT" noted as 1.18

What the record says about "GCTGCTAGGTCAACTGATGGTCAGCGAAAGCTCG" : PBM binding z-score is 3.2

Memo: "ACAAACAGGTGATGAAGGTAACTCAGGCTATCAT" , reported PBM binding z-score: 0.602

# sequence "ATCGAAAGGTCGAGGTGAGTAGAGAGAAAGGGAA" ; its PBM binding z-score = 4.41

According to the records, this sequence "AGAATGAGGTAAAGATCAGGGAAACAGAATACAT" displays PBM binding z-score of 0.406

Lab note: measured PBM binding z-score of "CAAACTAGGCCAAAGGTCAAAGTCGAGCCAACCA" was 7.49

For reference, reported PBM binding z-score for "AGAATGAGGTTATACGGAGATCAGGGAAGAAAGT" stands at 2.26

The sequence identified as "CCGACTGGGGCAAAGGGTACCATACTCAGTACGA" registered its PBM binding z-score at 0.731

Record summary for "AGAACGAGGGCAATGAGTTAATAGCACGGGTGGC" : reported PBM binding z-score = 0.7

Looking up "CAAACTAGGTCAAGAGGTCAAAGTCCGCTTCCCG" , I see its PBM binding z-score listed as 8.25

Note to self: PBM binding z-score recorded for "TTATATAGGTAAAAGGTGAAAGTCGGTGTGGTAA" was 2.87

Item: "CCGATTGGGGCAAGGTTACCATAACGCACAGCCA" | PBM binding z-score: 1.09

Sure, the documented PBM binding z-score for "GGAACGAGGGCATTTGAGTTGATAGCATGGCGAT" is 0.881

Briefly, PBM binding z-score measured for "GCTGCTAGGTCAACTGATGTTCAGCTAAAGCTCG" : 2.95

Field PBM binding z-score (entry "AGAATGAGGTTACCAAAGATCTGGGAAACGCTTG" ) reads 2.42

Reported PBM binding z-score for "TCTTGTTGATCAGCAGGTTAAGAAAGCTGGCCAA" was 0.257

Lab note: "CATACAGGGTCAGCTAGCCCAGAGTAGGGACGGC" gave PBM binding z-score of 4.46

The sequence "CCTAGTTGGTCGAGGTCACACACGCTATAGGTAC" showed PBM binding z-score equal to 5.16

// PBM binding z-score value for "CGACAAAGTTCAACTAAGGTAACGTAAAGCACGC" : 4.41

# PBM binding z-score of "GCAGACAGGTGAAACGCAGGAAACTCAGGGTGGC" = 0.715

The sequence listed as "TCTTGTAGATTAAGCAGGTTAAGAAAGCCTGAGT" shows PBM binding z-score equal to 0.377

Form: sequence = "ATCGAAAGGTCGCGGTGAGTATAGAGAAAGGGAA" ; PBM binding z-score = 5.39

Documented PBM binding z-score of "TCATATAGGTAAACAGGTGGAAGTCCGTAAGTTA" : 0.624

Measured PBM binding z-score of "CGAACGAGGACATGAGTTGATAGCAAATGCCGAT" : 0.107

Just so you know, measured PBM binding z-score for "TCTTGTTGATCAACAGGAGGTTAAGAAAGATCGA" came out at 0.644
